B1: OR4K15 (parent)
chain: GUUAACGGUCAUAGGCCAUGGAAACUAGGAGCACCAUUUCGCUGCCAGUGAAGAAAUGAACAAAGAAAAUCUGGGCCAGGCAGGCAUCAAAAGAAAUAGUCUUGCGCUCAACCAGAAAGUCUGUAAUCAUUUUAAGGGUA

variants of: B1; test: self-cleavage, relative activity (ratio to wild type); higher = more cleavage; in vitro, sequencing; the parent is a self-cleaving ribozyme
READOUT NAME: self-cleavage

INSERT INTO results (mutation_string, observed) VALUES
  ('A68G U70C', 0.51),
  ('G20A U49A', 1.67),
  ('G1C A91G', 0.65),
  ('A62G A96U', 1.26),
  ('A5C U108A', 0.07),
  ('U12C A59G', 0.86),
  ('U9C A89U', 1.25),
  ('A36G A60G', 1.28),
  ('A24G A62G', 1.27),
  ('A36G A98C', 2.03),
  ('C32U A94G', 1.5),
  ('G65A A140G', 2.16),
  ('G7A A117G', 0.51),
  ('U57A A98C', 1.24),
  ('C71U A135C', 0.42),
  ('A27G A92G', 1.48),
  ('U72A A111U', 0.01),
  ('A92C G115A', 0.36),
  ('U127C A140U', 1.33),
  ('U102G A117G', 0.37),
  ('A60G C121U', 1.48);

Entry source: the RNAGym collection of RNA variant scans (doi:10.7554/elife.90254)
